Experiment: physchem
Conditions: aqueous with cosolvent or surfactant or cyclodextrin
value kind: solubility

Please report solubility for the following compound: COc1cc2c(cc1O)c1c(c3cc(OC)c(OC)cc32)CC2CCCCN2C1 (stereo not shown) [Compound 20]
~1300 µg/mL

###

System: prostate carcinoma (DU145) cells
Test: Cell viability (MTT) assay, DU145
Format: cell-based, human
Details: 48 h treatment
value kind: IC50
Record the result as a number with its unit.

Solved entries:
Please report IC50 for the following molecule: COc1ccc2c3c(c4cc(OC)c(OC)cc4c2c1)C[C@H]1CCCCN1C3
4.6 nM

Please report IC50 for the following molecule: COc1cc2c3c(c4cc(OC)c(OC)cc4c2cc1OC)CN1CCC[C@@H]1C3
28.3 nM

Please report IC50 for the following molecule: COc1cc2c3c(c4cc(OC)c(OC)cc4c2cc1OC)CN1CCCCC1C3 (centres unmarked)
4.5 nM

Please report IC50 for the following molecule: COc1cc2c3c(c4cc(OC)c(OC)c(OC)c4c2cc1OC)CC1CCCN1C3 (centres unmarked)
58.8 nM

Please report IC50 for the following molecule: COc1ccc2c3c(c4cc(OC)c(OC)cc4c2c1)CN1CCCCC1C3 (centres unmarked)
184 nM

Please report IC50 for the following molecule: COc1ccc2c3c(c4cc(OC)c(OC)cc4c2c1)CN1CCC[C@H]1C3
176 nM

Next:
Please report IC50 for the following molecule: COc1cc2c3c(c4cc(OC)c(OC)c(OC)c4c2cc1OC)CC1CCCCN1C3 (centres unmarked)
35.7 nM

Please report IC50 for the following molecule: COc1ccc2c3c(c4cc(OC)c(OC)cc4c2c1)C[C@H]1CCCN1C3
30.3 nM
